Biological target: HER2 expressed on the surface of cells (human, UniProt P04626 23-1255)
Assay: cell-based or functional assay
This listing pairs binders with measured growth inhibition IC50 (potency), BT474 cells.
Your answer is read as nM, so omit the unit and give the number.

binder="Variant 12471 (antibody, human IgG1, kappa, name in Kabat numbering, V domains shown, Kabat numbering; also called v12471; FSA version of v9996) VH: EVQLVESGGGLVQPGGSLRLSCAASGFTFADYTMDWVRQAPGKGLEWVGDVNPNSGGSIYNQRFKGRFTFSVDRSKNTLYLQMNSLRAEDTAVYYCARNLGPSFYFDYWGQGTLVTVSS VL: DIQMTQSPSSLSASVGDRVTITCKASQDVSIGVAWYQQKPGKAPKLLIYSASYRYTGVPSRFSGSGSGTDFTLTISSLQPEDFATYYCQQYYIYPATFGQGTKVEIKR" observed_result=0.31

Turning now to a further record.
input: Which value of growth inhibition IC50 (potency), BT474 cells has been reported for Variant 14023 (antibody, name in Kabat numbering, V domains shown, also called v14023) VH: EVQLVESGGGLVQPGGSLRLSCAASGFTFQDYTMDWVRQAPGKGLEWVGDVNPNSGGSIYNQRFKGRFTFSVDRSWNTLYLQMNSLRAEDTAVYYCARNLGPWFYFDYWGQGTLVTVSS VL: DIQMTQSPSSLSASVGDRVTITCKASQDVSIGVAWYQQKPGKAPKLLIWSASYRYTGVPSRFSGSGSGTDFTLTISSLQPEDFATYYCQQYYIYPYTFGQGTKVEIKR in the records?
output: 0.63
